Hello, the source for this data is PubChem BioAssay (NCI), in case you need it.

tested on: 786-0 renal; test: NCI-60 one-dose screen, 48 h (100 = growth as untreated, 0 = no growth, -100 = all killed); settings: 10 µM unless noted
Compounds without any hit were thinned out: in the full panel of roughly 83,000, 20% have a hit.
endpointLabel: growth (%)
Your answer is read as %, so omit the unit and give the number.

S=C(Sc1ccc(Cl)cc1)Sc1ccc(Cl)cc1 | -14.5
CC1(c2ccccc2)CO1 (centres undefined) | 102
CC(C)C1CCC(C)C(O)C1 (centres undefined) | 105
O=C(Nc1cccc(Cl)c1)c1ccc(Cl)cc1Cl | 88.4
O=C(N/N=C\c1ccc(Cl)cc1Cl)c1ccncc1 | 90.5

Q) Record request: growth value, item O=C(CCl)Oc1ccc([N+](=O)[O-])cc1
A) 108

###

test system: TK-10 renal; test: NCI-60 one-dose screen, 48 h (100 = growth as untreated, 0 = no growth, -100 = all killed); settings: 10 µM unless noted
The panel holds about 83,000 compounds, 20% with a hit somewhere; the sample as a whole holds those more often.
Parameter growth: see the listing below.
Give just the numeric value; % need not be written.

Consider the reported growth for these compounds:
CC(C)(C)CC1(C)NC(=O)NC1=O (stereo not drawn) | 125
C=C(C)COc1ccc(C(C)(C)C)cc1 | 97.1
CC(C)NC(=O)OCc1c(COC(=O)NC(C)C)c(-c2ccc(Cl)cc2)n2c1CCC2 | 57.6
CC(=O)c1cccs1 | 103
Nc1ncnc(Nc2ccc(C(F)(F)F)cc2)n1 | 109

Q) Give TK-10 renal growth for COC(=O)c1ccc([N+](=O)[O-])c(C)c1
A) 128

Q) Give growth (TK-10 renal) of the following compound: O=S(=O)(O)C(C(I)I)S(=O)(=O)O
A) 111

Q) growth of CCOC(=O)C(CCC#N)(CCC#N)C(=O)OCC on TK-10 renal?
A) 102

Q) Could you share what growth was measured for O=C(O)Cc1cccc2ccccc12 , tested on TK-10 renal?
A) 102

Q) Notebook: pull reported growth for TK-10 renal, entry CCOC(=O)N[C@H]1CCc2cc(OC)c(OC)c(OC)c2-c2ccc(SC)c(=O)cc21
A) 43.7

###

List of growth values.
test system: LOX IMVI melanoma; test: NCI-60 one-dose screen, 48 h (100 = growth as untreated, 0 = no growth, -100 = all killed); settings: 10 µM
Compounds without any hit were thinned out: in the full panel of roughly 83,000, 20% have a hit.
Return type: number; implicit unit %.

Example entries begin here.
Cc1ccc(S(N)(=O)=O)cc1Cl | 114
NC(=O)NCCO | 97.7
C/C(=N\O)c1ccccn1 | 99.1

Q) # query: growth of entry C[n+]1c(/C=C\C=C\N2CCCCC2)sc2ccccc21
A) 14.1

Q) Could you tell me which growth is on file for O=C(O)Cc1ccccn1 ?
A) 113

Q) Form field: reported growth of CC(=O)OC(C)c1cccc(C#N)c1 (centres undefined)
A) 101

Q) Which growth is reported for this molecule? Cc1ccc(OC(=O)c2ccccc2)cc1
A) 105

Q) Fill in: growth of CC(=O)NC(CCC(=O)c1ccccc1)C(=O)O (centres undefined) is ___
A) 100

Q) # lookup: growth of CC(CCC#N)(CCC#N)C(=O)c1ccccc1
A) 100

Q) Item under review: CN(C)c1ccc2c(N(C)C)cc(N(C)C)nc2c1 . Reported growth?
A) 87.7

Q) Any idea what growth was measured for Cc1ccc(NCN2C(=O)c3ccccc3C2=O)c(C)n1 ?
A) 104

Q) // growth lookup, key: CC(=O)Nc1ccc(/C=C2\SC(=S)N(/C=C(\C(C)=O)C(N)=O)C2=O)cc1
A) 78.3

Q) Look up growth for this molecule: Cc1cc(CC(=O)NCCO)n(CCO)c(=O)c1
A) 98.8

Q) Param item = Cc1nc(O)cc(=O)[nH]1 ; retrieve measured growth.
A) 108

###

tested on: SK-MEL-2 melanoma; assay: NCI-60 one-dose screen, 48 h (100 = growth as untreated, 0 = no growth, -100 = all killed); conditions: 10 µM unless noted
The panel holds about 83,000 compounds, 20% with a hit somewhere; the sample as a whole holds those more often. The source made the active and inactive calls. How the source made its calls: active means growth percent below 10; inactive means the rest.
Some molecules, each annotated with its measured growth.

The following molecules have reported results that may help.
CCNC(=O)OCCc1c2ccccc2nc2ccccc12 | 111% (inactive)
S=C(NCc1ccccc1)N1CCC(CCCC2CCN(C(=S)NCc3ccccc3)CC2)CC1 | 114% (inactive)
O=CNCCc1ccccc1 | 105% (inactive)
C=COC(=O)C(C)(C)C | 94.7% (inactive)
CSc1nsc(N)n1 | 94.2% (inactive)
COc1cc(C(=O)N2CCN(c3ccccc3)CC2)c2ccccc2n1 | 3.61% (active)
CCCCCCCCCc1ccc(OC(C)=O)cc1 | 101% (inactive)
CN(C)c1ccc2c(N(C)C)cc(N(C)C)nc2c1 | 143% (inactive)

Q) Value lookup for growth; key = CCC(C)c1c(N)n(S(=O)(=O)c2ccc(C)cc2)oc1=O (stereo unspecified)
A) 107% (inactive)

Q) What value of measured growth is listed for CC1CN(CCO)CC(C)O1 (stereo unspecified) ?
A) 133% (inactive)

Q) Return reported growth; argument: Cc1cc(Cl)cc(Cc2cc(Cl)cc(C)c2O)c1O
A) -18.1% (active)

Q) Return reported growth; argument: CCOC(OCC)C(=O)c1ccccc1
A) 88.8% (inactive)

Q) Which growth value is on record for O=[N+]([O-])c1ccc2[nH]c(=S)n(/C=C(/c3ccc(Cl)cc3Cl)S(=O)(=O)Cc3ccc(Cl)cc3Cl)c2c1 ?
A) 102% (inactive)

###

tested on: OVCAR-5 ovarian; assay: NCI-60 one-dose screen, 48 h; conditions: 10 µM unless noted
This is part of a sample that, as a whole, favours compounds with a hit. Of some 83,000 tested, about 20% had one in any assay. Active and inactive are the calls of the source. The calls were made as follows: active = growth percent below 10; inactive = the rest.
API: response.call in 1 for active, 0 for inactive

Use these answered entries as a reference point.
Cc1ccc(S(=O)(=O)CCCl)cc1 | 0
C=CCOc1ccc(Cl)cc1Cl | 0

Q) How was Cc1ccc(NCN2C(=O)c3ccccc3C2=O)c(C)n1 classified in this test?
A) 0

Q) Outcome? CCN(C(=O)Nc1ccccc1Cl)c1ccccc1
A) 0

Q) Give the logged outcome of this assay for the following molecule: CC(C)(N)CO[C@H]1C[C@H]2CC[C@@]1(C)C2(C)C
A) 0

Q) What did the test return for CCC(C)c1c(N)n(S(=O)(=O)c2ccc(C)cc2)oc1=O (stereo not drawn) ?
A) 0

Q) // return assay outcome for O=C(c1cccc(C(=O)c2ccc3c4c(cccc24)C(=O)N(c2ccccc2)C3=O)c1)c1ccc2c3c(cccc13)C(=O)N(c1ccccc1)C2=O
A) 0

Q) Kindly provide the recorded test outcome for the following molecule: C=C1SC(=Nc2c(C)cccc2C)N(c2nc(Cl)nc(Cl)n2)C12CCCCC2
A) 0

Q) Fill in: this test's call for NC(=O)NCCO is ___
A) 0

Q) What is the recorded call for this molecule in the test? Ic1cccs1
A) 0

Q) Given COc1cc(C(=O)N2CCN(c3ccccc3)CC2)c2ccccc2n1 , state the outcome it received in this test.
A) 0

Q) Recorded test outcome, item Cc1ccccc1CC(N)C(=O)O (stereo not drawn)
A) 0

Q) # fetch the recorded call for O=c1[nH]c(=O)c2cc(Cl)cc(Cl)c2[nH]1 here
A) 0

Q) Query: recorded result category for COc1cccc2c1Cc1ccccc1-2 in this test
A) 0

Q) Please share the test call associated with C=COC(=O)C(C)(C)C .
A) 0

###

system: UO-31 renal; assay: NCI-60 one-dose screen, 48 h (100 = growth as untreated, 0 = no growth, -100 = all killed); conditions: 10 µM unless noted
About 83,000 compounds went through this panel and 20% of them were active in at least one assay; those are over-represented in the sample as a whole.
endpointLabel: growth (%)
The reply should contain only the number, in %.

C=CC(C)(C)n1cc(C2=C(O)C(=O)C(c3cn(C(C)(C)C=C)c4ccccc34)=C(O)C2=O)c2ccccc21 | 74.1
CCN(Cc1ccc(Cl)c(Cl)c1)c1ccc2nc(N)nc(N)c2c1C | -82.7
CCN1CCCC(N2c3ccccc3Sc3ccccc32)C1 (stereo not given) | 79.1
CC(=O)OCC1CCC(COC(C)=O)CC1 (stereo not given) | 91.9
O=[N+]([O-])c1ccc2[nH]c(=S)n(/C=C(/c3ccc(Cl)cc3Cl)S(=O)(=O)Cc3ccc(Cl)cc3Cl)c2c1 | 97.2

Q) Please look up its growth: S=c1nc2[nH]c3ccccc3c2n[nH]1
A) 88.6

Q) Fill blank: measured growth of the compound COC1(OC)C2(Cl)C(Cl)=C(Cl)C1(Cl)C1COCC12 (stereo not given) is ____.
A) 91.6

Q) Return reported growth; argument: Cn1c(=O)[nH]c2ccccc2c1=O
A) 95.5

Q) For the compound shown here, Cc1ccc(C(C)C)c(OCC(=O)O)c1 , give the reported growth.
A) 97

Q) Please give the measured growth for this compound: NCC(O)C(O)C(O)C(O)CO (stereo not given)
A) 93.2
